Entries annotated with measured melting point

Consider the worked cases shown below.
>  <Compound>
C[C@H]1[C@H](C)CC[C@]2(C(=O)O)CC[C@]3(C)C(=CC[C@@H]4[C@@]5(C)C/C(=C\c6cn(-c7ccc(Cl)c(Cl)c7)nn6)C(=O)C(C)(C)[C@@H]5CC[C@]43C)[C@H]12

>  <melting point>
> 250 °C

$$$$
>  <Compound>
C[C@H]1[C@H](C)CC[C@]2(C(=O)OCCn3cnnc3-c3ccc(Cl)cc3)CC[C@]3(C)C(=CC[C@@H]4[C@@]5(C)CCC(O)C(C)(C)[C@@H]5CC[C@]43C)[C@H]12 (stereo partly drawn)

>  <melting point>
245 to 246 °C

$$$$

Now examine the next entry.
INPUT: Param item = COc1ccc(-n2cc(CNC(=O)COC(=O)[C@]34CC[C@@H](C)[C@H](C)[C@H]3C3=CC[C@@H]5[C@@]6(C)CCC(O)C(C)(C)[C@@H]6CC[C@@]5(C)[C@]3(C)CC4)nn2)cc1 (stereo partly drawn) ; retrieve measured melting point.
OUTPUT: 180 to 181 °C

----------
Measured quantity: melting point

Consider the worked cases shown below.
>  <Compound>
C[C@H]1[C@H](C)CC[C@]2(C(=O)O)CC[C@]3(C)C(=CC[C@@H]4[C@@]5(C)C/C(=C\c6cn(-c7ccccc7)nn6)C(=O)C(C)(C)[C@@H]5CC[C@]43C)[C@H]12

>  <Measured quantity>
melting point

>  <Recorded result>
> 250 °C

$$$$
>  <Compound>
COc1ccc(-c2nncn2CCOC(=O)[C@]23CC[C@@H](C)[C@H](C)[C@H]2C2=CC[C@@H]4[C@@]5(C)CCC(O)C(C)(C)[C@@H]5CC[C@@]4(C)[C@]2(C)CC3)cc1 (stereo partly shown)

>  <Measured quantity>
melting point

>  <Recorded result>
233 to 235 °C

$$$$
>  <Compound>
C[C@H]1[C@H](C)CC[C@]2(C(=O)O)CC[C@]3(C)C(=CC[C@@H]4[C@@]5(C)C/C(=C\c6cn(-c7ccc(F)cc7)nn6)C(=O)C(C)(C)[C@@H]5CC[C@]43C)[C@H]12

>  <Measured quantity>
melting point

>  <Recorded result>
> 250 °C

$$$$

INPUT: Param item = `COc1ccccc1-n1cc(/C=C2\C[C@]3(C)[C@H]4CC=C5[C@@H]6[C@@H](C)[C@H](C)CC[C@]6(C(=O)O)CC[C@@]5(C)[C@]4(C)CC[C@H]3C(C)(C)C2=O)nn1` ; retrieve measured melting point.
OUTPUT: > 250 °C

INPUT: Param item = `C[C@H]1[C@H](C)CC[C@]2(C(=O)O)CC[C@]3(C)C(=CC[C@@H]4[C@@]5(C)C/C(=C\c6cn(-c7ccccc7F)nn6)C(=O)C(C)(C)[C@@H]5CC[C@]43C)[C@H]12` ; retrieve measured melting point.
OUTPUT: > 250 °C

INPUT: Param item = Cc1ccc(-n2cc(CNC(=O)COC(=O)[C@]34CC[C@@H](C)[C@H](C)[C@H]3C3=CC[C@@H]5[C@@]6(C)CCC(O)C(C)(C)[C@@H]6CC[C@@]5(C)[C@]3(C)CC4)nn2)cc1 (stereo partly shown) ; retrieve measured melting point.
OUTPUT: 186 to 187 °C

INPUT: Param item = C[C@H]1[C@H](C)CC[C@]2(C(=O)OCC(=O)NCc3cn(-c4ccc(Cl)cc4)nn3)CC[C@]3(C)C(=CC[C@@H]4[C@@]5(C)CCC(O)C(C)(C)[C@@H]5CC[C@]43C)[C@H]12 (stereo partly shown) ; retrieve measured melting point.
OUTPUT: 176 to 178 °C

INPUT: Param item = C[C@H]1[C@H](C)CC[C@]2(C(=O)OCC(=O)NCc3cn(-c4ccccc4)nn3)CC[C@]3(C)C(=CC[C@@H]4[C@@]5(C)CCC(O)C(C)(C)[C@@H]5CC[C@]43C)[C@H]12 (stereo partly shown) ; retrieve measured melting point.
OUTPUT: 170 to 172 °C

INPUT: Param item = `C[C@H]1[C@H](C)CC[C@]2(C(=O)O)CC[C@]3(C)C(=CC[C@@H]4[C@@]5(C)C/C(=C\c6cn(-c7cccc(F)c7)nn6)C(=O)C(C)(C)[C@@H]5CC[C@]43C)[C@H]12` ; retrieve measured melting point.
OUTPUT: > 250 °C

INPUT: Param item = C[C@H]1[C@H](C)CC[C@]2(C(=O)OCC(=O)NCc3cn(-c4ccc(Cl)c(Cl)c4)nn3)CC[C@]3(C)C(=CC[C@@H]4[C@@]5(C)CCC(O)C(C)(C)[C@@H]5CC[C@]43C)[C@H]12 (stereo partly shown) ; retrieve measured melting point.
OUTPUT: 203 to 204 °C

----------
# Test system: T. gondii RH strain tachyzoites
# Method: In vitro T. gondii growth inhibition in HeLa host cells (MTT)
# Type: cell-based, Toxoplasma gondii
# Study conditions: IC50 in HeLa cells/IC50 in T. gondii
Measured quantity: SI (selectivity index)
I'd appreciate a reply containing only the number, no unit.

>  <Compound>
C[C@H]1[C@H](C)CC[C@]2(C(=O)OCCn3cnnc3-c3ccc(F)cc3)CC[C@]3(C)C(=CC[C@@H]4[C@@]5(C)CCC(O)C(C)(C)[C@@H]5CC[C@]43C)[C@H]12 (stereo partly drawn) [3c]

>  <Recorded result>
1.44

$$$$

INPUT: Param item = C[C@H]1[C@H](C)CC[C@]2(C(=O)O)CC[C@]3(C)C(=CC[C@@H]4[C@@]5(C)C/C(=C\c6cn(-c7ccccc7I)nn6)C(=O)C(C)(C)[C@@H]5CC[C@]43C)[C@H]12 [1h] ; retrieve measured SI (selectivity index).
OUTPUT: 0.84

INPUT: Param item = C[C@H]1[C@H](C)CC[C@]2(C(=O)OCCn3cnnc3-c3ccccc3)CC[C@]3(C)C(=CC[C@@H]4[C@@]5(C)CCC(O)C(C)(C)[C@@H]5CC[C@]43C)[C@H]12 (stereo partly drawn) [3a] ; retrieve measured SI (selectivity index).
OUTPUT: 1.15

INPUT: Param item = C[C@H]1[C@H](C)CC[C@]2(C(=O)O)CC[C@]3(C)C(=CC[C@@H]4[C@@]5(C)C/C(=C\c6cn(-c7ccccc7F)nn6)C(=O)C(C)(C)[C@@H]5CC[C@]43C)[C@H]12 [1b] ; retrieve measured SI (selectivity index).
OUTPUT: 0.59

INPUT: Param item = COc1ccc(-c2nncn2CCOC(=O)[C@]23CC[C@@H](C)[C@H](C)[C@H]2C2=CC[C@@H]4[C@@]5(C)CCC(O)C(C)(C)[C@@H]5CC[C@@]4(C)[C@]2(C)CC3)cc1 (stereo partly drawn) [3e] ; retrieve measured SI (selectivity index).
OUTPUT: 0.67

INPUT: Param item = C[C@H]1[C@H](C)CC[C@]2(C(=O)O)CC[C@]3(C)C(=CC[C@@H]4[C@@]5(C)C/C(=C\c6cn(-c7ccc(Cl)c(Cl)c7)nn6)C(=O)C(C)(C)[C@@H]5CC[C@]43C)[C@H]12 [1f] ; retrieve measured SI (selectivity index).
OUTPUT: 0.88

INPUT: Param item = COc1cc(-n2cc(/C=C3\C[C@]4(C)[C@H]5CC=C6[C@@H]7[C@@H](C)[C@H](C)CC[C@]7(C(=O)O)CC[C@@]6(C)[C@]5(C)CC[C@H]4C(C)(C)C3=O)nn2)cc(OC)c1OC [1j] ; retrieve measured SI (selectivity index).
OUTPUT: 1.17

INPUT: Param item = C[C@H]1[C@H](C)CC[C@]2(C(=O)O)CC[C@]3(C)C(=CC[C@@H]4[C@@]5(C)C/C(=C\c6cn(-c7ccccc7Br)nn6)C(=O)C(C)(C)[C@@H]5CC[C@]43C)[C@H]12 [1g] ; retrieve measured SI (selectivity index).
OUTPUT: 0.80

INPUT: Param item = C[C@H]1[C@H](C)CC[C@]2(C(=O)O)CC[C@]3(C)C(=CC[C@@H]4[C@@]5(C)CC[C@H](O)C(C)(C)[C@@H]5CC[C@]43C)[C@H]12 [Ursolic Acid, Ursolic acid] ; retrieve measured SI (selectivity index).
OUTPUT: 0.62

INPUT: Param item = C[C@H]1[C@H](C)CC[C@]2(C(=O)OCCn3cnnc3-c3ccc([N+](=O)[O-])cc3)CC[C@]3(C)C(=CC[C@@H]4[C@@]5(C)CCC(O)C(C)(C)[C@@H]5CC[C@]43C)[C@H]12 (stereo partly drawn) [3d] ; retrieve measured SI (selectivity index).
OUTPUT: 1.77

INPUT: Param item = C[C@H]1[C@H](C)CC[C@]2(C(=O)O)CC[C@]3(C)C(=CC[C@@H]4[C@@]5(C)C/C(=C\c6cn(-c7ccccc7Cl)nn6)C(=O)C(C)(C)[C@@H]5CC[C@]43C)[C@H]12 [1e] ; retrieve measured SI (selectivity index).
OUTPUT: 1.95

INPUT: Param item = C[C@H]1[C@H](C)CC[C@]2(C(=O)OCCn3cnnc3-c3ccc(Cl)cc3)CC[C@]3(C)C(=CC[C@@H]4[C@@]5(C)CCC(O)C(C)(C)[C@@H]5CC[C@]43C)[C@H]12 (stereo partly drawn) [3b] ; retrieve measured SI (selectivity index).
OUTPUT: 0.36

Where do these numbers come from? They come from paper PMC6407578.
